# experimental_details: Pharmacokinetics after oral administration in mice
# Format: in vivo
# condition_notes: mouse, 50 mg/kg, plasma, read-out: MRT0-t

compound	MRT last [h]
CN(C)C(=O)c1cc(NC(=O)c2cc3c(-c4cnc5[nH]ccc5c4)cccc3s2)ccc1O [CDD-2728]	1.7

====

# measured_target: JNK2 (Homo sapiens)
# Sequence (P45984 whole entry): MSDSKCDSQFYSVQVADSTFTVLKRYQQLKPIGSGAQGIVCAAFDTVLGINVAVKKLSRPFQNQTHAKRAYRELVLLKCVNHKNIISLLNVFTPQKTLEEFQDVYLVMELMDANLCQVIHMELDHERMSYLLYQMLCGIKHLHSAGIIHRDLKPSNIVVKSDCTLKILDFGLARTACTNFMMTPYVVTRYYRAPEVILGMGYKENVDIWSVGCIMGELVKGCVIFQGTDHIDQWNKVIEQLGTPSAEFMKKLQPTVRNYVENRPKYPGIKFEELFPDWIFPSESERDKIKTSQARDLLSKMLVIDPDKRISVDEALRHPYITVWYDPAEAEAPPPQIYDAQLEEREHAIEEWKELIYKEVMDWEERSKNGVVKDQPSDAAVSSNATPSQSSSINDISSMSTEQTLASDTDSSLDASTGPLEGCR
# experimental_details: JNK2 kinase (intrinsic ATPase, Kinase-Glo) assay
# Format: biochemical

smiles_str	display_unit	Ki
O=C(Nc1ccc(C(F)(F)F)cc1)c1ccn2ncc(-c3cnc4[nH]ccc4c3)c2c1	nM	339

====

# measured_target: JNK3 (Homo sapiens)
# Sequence (P53779 whole entry): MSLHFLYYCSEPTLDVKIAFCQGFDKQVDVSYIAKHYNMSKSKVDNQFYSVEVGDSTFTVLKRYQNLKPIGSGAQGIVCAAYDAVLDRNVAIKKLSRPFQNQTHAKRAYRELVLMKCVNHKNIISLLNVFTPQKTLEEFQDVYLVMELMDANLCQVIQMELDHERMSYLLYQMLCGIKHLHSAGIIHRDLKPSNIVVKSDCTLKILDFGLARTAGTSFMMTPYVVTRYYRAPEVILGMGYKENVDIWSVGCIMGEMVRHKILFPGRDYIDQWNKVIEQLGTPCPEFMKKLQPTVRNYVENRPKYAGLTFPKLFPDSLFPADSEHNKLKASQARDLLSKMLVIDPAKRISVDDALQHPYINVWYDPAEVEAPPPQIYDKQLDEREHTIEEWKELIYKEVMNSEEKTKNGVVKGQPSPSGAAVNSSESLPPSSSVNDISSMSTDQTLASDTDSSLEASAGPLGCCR
# experimental_details: JNK3 kinase (intrinsic ATPase, Kinase-Glo) assay
# Type: biochemical
# condition_notes: Table 3a; read-out: Kd JNK3
readout_name: log10 of Kd (log10 of the value in nM)

smiles_str	measured_target	log10 of Kd
O=C(Nc1ccc(O)c(C(=O)NC2COC2)c1)c1cc2c(-c3cnc4[nH]ccc4c3)cccc2s1	JNK3 (Homo sapiens)	0.81
CCN(CC)Cc1cc(NC(=O)c2cc3c(-c4cnc5[nH]ccc5c4)cccc3s2)ccc1O	JNK3 (Homo sapiens)	0.46
CN(C)C(=O)c1cc(NC(=O)c2cc3c(-c4cnc5[nH]ncc5c4)cccc3s2)ccc1O	JNK3 (Homo sapiens)	0.71
COc1ccc(NC(=O)c2cc3c(-c4cnc5[nH]ccc5c4)cccc3s2)cc1C(=O)N1CCN(C)CC1	JNK3 (Homo sapiens)	-0.27
CN(C)CCNC(=O)c1cc2c(-c3cnc4[nH]ccc4c3)cccc2s1	JNK3 (Homo sapiens)	1.48
O=C(Nc1cncnc1)c1cc2c(-c3cnc4[nH]ccc4c3)cccc2s1	JNK3 (Homo sapiens)	0.50
O=C(Nc1ccc(O)c(C(=O)N2CCC2)c1)c1cc2c(-c3cnc4[nH]ccc4c3)cccc2s1	JNK3 (Homo sapiens)	0.47
CNCc1ccc(NC(=O)c2ccn3ncc(-c4cncc5ccccc45)c3c2)cc1	JNK3 (Homo sapiens)	0.14
CNCc1ccc(NC(=O)c2ccn3ncc(-c4cnc(N)nc4)c3c2)cc1	JNK3 (Homo sapiens)	0.93
CN(C)C(=O)c1cc(NC(=O)c2cc3c(-c4cnc5[nH]ccc5c4)cccc3s2)ccc1F	JNK3 (Homo sapiens)	0.27
Cc1c[nH]c2ncc(-c3cccc4sc(C(=O)Nc5ccc(O)c(C(=O)N(C)C)c5)cc34)cc12	JNK3 (Homo sapiens)	0.43
O=C(Nc1ccc(F)cc1)c1ccn2ncc(-c3cnc4[nH]ccc4c3)c2c1	JNK3 (Homo sapiens)	-0.07
COc1ccc(NC(=O)c2cc3c(-c4cnc5[nH]ccc5c4)cccc3s2)cc1	JNK3 (Homo sapiens)	1.00
CNCc1ccc(NC(=O)c2ccn3ncc(-c4cnc5[nH]ccc5c4)c3c2)cc1	JNK3 (Homo sapiens)	-0.19
CN(C)Cc1ccc(NC(=O)c2ccn3ncc(-c4cnc5[nH]ccc5c4)c3c2)cc1	JNK3 (Homo sapiens)	-0.35
CN(C)C(=O)c1cccc(NC(=O)c2cc3c(-c4cnc5[nH]ccc5c4)cccc3s2)c1	JNK3 (Homo sapiens)	0.76
O=C(Nc1cccc(C(=O)N2CCCCC2)c1)c1cc2c(-c3cnc4[nH]ccc4c3)cccc2s1	JNK3 (Homo sapiens)	0.21
